ASSAY_TEXT: Volume of distribution at steady state in rat at 1 mg/kg, iv and 5 mg/kg, po
Type: ADME, organism-based
CONDITION: in vivo, read-out: Vdss
Each entry below carries its recorded Vd.
Kindly answer with a numeric value in L/kg, unit omitted.

> print(dat)
                                smiles.data  reported.metric  observed.result
1  CC[C@@H](C)Nc1nc(C)nc2c(-c3ccc(OC)nc3C)c(C)nn12               Vd             14.9

Now examine the next entry.
Exam item: // Input: COCCN(CCOC)c1nc(C)nc2c(-c3ccc(OC)cc3C)c(C)nn12.O=S(=O)(O)c1ccccc1 . Output its Vd only.
Marked response: 14.6

====

ASSAY_TEXT: AUC (0 to infinity) in chimpanzee at 1 mg/kg, po
Type: ADME, organism-based, Pan troglodytes
Parameters: time infinity, dose 1 mg/kg, route oral
CONDITION: plasma
# reported AUC(0-inf); entries follow

> print(dat)
                                   compound  reported.metric  observed.result
1  CC[C@@H](C)Nc1nc(C)nc2c(-c3ccc(OC)nc3C)c(C)nn12 [PEXACERFONT]       AUC(0-inf)        11.7 µM·h

Now examine the next entry.
Exam item: Return reported AUC(0-inf). Input compound: COCCN(CCOC)c1nc(C)nc2c(-c3ccc(OC)cc3C)c(C)nn12.O=S(=O)(O)c1ccccc1
Marked response: 0.212 µM·h

====

This listing pairs compounds with measured bioavailability.
ASSAY_TEXT: Oral bioavailability in chimpanzee at 1 mg/kg
Type: ADME, organism-based, Pan troglodytes
CONDITION: in vivo
Could you give me the number in %? Just the number is fine.

> print(dat)
                                   compound  observed.result
1  CC[C@@H](C)Nc1nc(C)nc2c(-c3ccc(OC)nc3C)c(C)nn12 [PEXACERFONT]               49

--- query ---
Exam item: Indicate its recorded bioavailability; the compound in question is COCCN(CCOC)c1nc(C)nc2c(-c3ccc(OC)cc3C)c(C)nn12.O=S(=O)(O)c1ccccc1
Marked response: 5.2

====

ASSAY_TEXT: Elimination half life in chimpanzee at 1 mg/kg, po
Format: ADME, organism-based, Pan troglodytes
Design: dose 1 mg/kg, route oral
CONDITION: in vivo, read-out: beta t1/2 (converted)
REPORTED_METRIC: half-life

> print(dat)
                                smiles.data  reported.metric  observed.result
1  CC[C@@H](C)Nc1nc(C)nc2c(-c3ccc(OC)nc3C)c(C)nn12        half-life             26 h

Exam item: Report half-life, nothing else, for this compound: COCCN(CCOC)c1nc(C)nc2c(-c3ccc(OC)cc3C)c(C)nn12.O=S(=O)(O)c1ccccc1
Marked response: 16.5 h

====

ASSAY_TEXT: Half life in Beagle dog at 1 mg/kg, po by cassette dosing
Assay type: ADME, organism-based, Canis lupus familiaris
Set-up: dose 1 mg/kg, route oral
CONDITION: in vivo
REPORTED_METRIC: half-life (min)
Report the figure in min without appending any unit label.

> print(dat)
                                   molecule  reported.metric  observed.result
1  COCCN(CCOC)c1nc(C)nc2c(-c3ccc(OC)cc3C)c(C)nn12.O=S(=O)(O)c1ccccc1        half-life              606

Exam item: Report half-life for CCCC(C)Nc1nc(C)nc2c(-c3ccc(OC)nc3C)c(C)nn12 (stereo unspecified)
Marked response: 708

Exam item: Look up and state reported half-life for CC[C@@H](C)Nc1nc(C)nc2c(-c3ccc(OC)nc3C)c(C)nn12
Marked response: 642

Exam item: Could you please provide reported half-life for COCCN(CC1CC1)c1nc(C)nc2c(-c3ccc(OC)nc3C)c(C)nn12 ? Thanks!
Marked response: 684

Exam item: Supply recorded half-life for COCCN(CCOC)c1nc(C)nc2c(-c3ccc(OC)nc3C)c(C)nn12 here.
Marked response: 618

Exam item: Give the measured half-life for CC[C@H](C)Nc1nc(C)nc2c(-c3ccc(OC)nc3C)c(C)nn12
Marked response: 474

====

TARGET_UNDER_TEST: Corticotropin-releasing factor receptor 1 (Rattus norvegicus)
Sequence (P35353 whole entry): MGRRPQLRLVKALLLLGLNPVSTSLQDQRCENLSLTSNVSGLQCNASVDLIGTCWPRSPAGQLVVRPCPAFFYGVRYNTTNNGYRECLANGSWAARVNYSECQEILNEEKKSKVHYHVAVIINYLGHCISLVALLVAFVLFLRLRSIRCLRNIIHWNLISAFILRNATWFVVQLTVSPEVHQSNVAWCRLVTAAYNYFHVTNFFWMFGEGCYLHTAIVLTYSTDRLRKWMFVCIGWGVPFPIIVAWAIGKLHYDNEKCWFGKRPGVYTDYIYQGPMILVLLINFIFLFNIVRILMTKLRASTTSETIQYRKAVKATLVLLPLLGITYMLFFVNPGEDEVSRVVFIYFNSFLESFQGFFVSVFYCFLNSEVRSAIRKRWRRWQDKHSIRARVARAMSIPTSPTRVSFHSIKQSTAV
ASSAY_TEXT: Displacement of [125I]Tyro-rat/human CRF from CRF1 receptor in rat cortical membrane by gamma counting
Format: cell membranes
Rule: IC50 below 10 nM gives TRUE, anything at or above gives FALSE.

> print(dat)
                                smiles.data  group
1  COCCN(CC1CC1)c1nc(C)nc2c(-c3ccc(OC)nc3C)c(C)nn12   TRUE
2  COCCN(CCOC)c1nc(C)nc2c(-c3ccc(OC)nc3C)c(C)nn12   TRUE
3  CCC(CC)Nc1nc(C)nc2c(-c3cnc(OC)cc3C)c(C)nn12   TRUE

Exam item: Dear colleague, could you confirm whether IC50 of CCN(CC)c1nc(C)nc2c(-c3cnc(OC)cc3C)c(C)nn12 falls below 10 nM? Thanks.
Marked response: FALSE

Exam item: Check if IC50 falls below 10 nM for CCN(CC)c1nc(C)nc2c(-c3cnc(N(C)C)cc3C)c(C)nn12 .
Marked response: FALSE

====

ASSAY_TEXT: Plasma concentration in dog at 0.3 mg/kg after intravenous infusion for 30 mins
Assay type: ADME, organism-based, Canis lupus familiaris
Design: dose 0.3 mg/kg, route intravenous
REPORTED_METRIC: concentration at 0.5 h (nM)
Provide only the numeric value, understood in nM.

Exam item: Assign concentration at 0.5 h to the following record: CC[C@@H](C)Nc1nc(C)nc2c(-c3ccc(OC)nc3C)c(C)nn12 [PEXACERFONT]
Marked response: 150

====

ASSAY_TEXT: Clearance in rat at 1 mg/kg, iv and 5 mg/kg, po
Type: ADME, organism-based
CONDITION: in vivo
REPORTED_METRIC: clearance (mL/min/kg)
The response must be a number in mL/min/kg with no trailing unit.

> print(dat)
                                smiles.data  observed.result
1  CC[C@@H](C)Nc1nc(C)nc2c(-c3ccc(OC)nc3C)c(C)nn12             17.9

Next item in the queue.
Exam item: Look up and report measured clearance for this entry: COCCN(CCOC)c1nc(C)nc2c(-c3ccc(OC)cc3C)c(C)nn12.O=S(=O)(O)c1ccccc1
Marked response: 20

====

ASSAY_TEXT: Plasma concentration in spontaneously breathing dog at 5 mg/kg, iv after 30 mins
Type: ADME, organism-based, Canis lupus familiaris
Design: dose 5 mg/kg, route intravenous
REPORTED_METRIC: concentration at 0.5 h

Exam item: Give the measured concentration at 0.5 h for CC[C@@H](C)Nc1nc(C)nc2c(-c3ccc(OC)nc3C)c(C)nn12
Marked response: 412 nM

====

Entries and their solubility
ASSAY_TEXT: Aqueous solubility at pH 7
Assay type: physicochemical
CONDITION: aqueous medium

> print(dat)
                                smiles.data  reported.metric  observed.result
1  COCC(COC)Nc1nc(C)nc2c(-c3ccc(Cl)cc3Cl)c(C)nn12       solubility        < 1 µg/mL

From here, focus on the item given below.
Exam item: State its solubility for this compound: CCCCN(CC)c1nc(C)nc2c1c(C)cn2-c1c(C)cc(C)cc1C.Cl
Marked response: < 1 µg/mL

====

ASSAY_TEXT: Plasma concentration in dog at 3 mg/kg after […]
Format: ADME, organism-based, Canis lupus familiaris
Set-up: dose 3 mg/kg, route intravenous
CONDITION: iv
REPORTED_METRIC: concentration at 0.5 h (µM)
Express the result in µM but write the number alone.

Exam item: // fetch concentration at 0.5 h given entry CC[C@@H](C)Nc1nc(C)nc2c(-c3ccc(OC)nc3C)c(C)nn12
Marked response: 1.29

====

ASSAY_TEXT: Elimination half life in rat at 1 mg/kg, iv and 5 mg/kg, po
Type: ADME, organism-based
CONDITION: in vivo, read-out: beta t1/2 (converted)
REPORTED_METRIC: half-life (h)
Respond with the bare value in h.

Exam item: Note half-life for the molecule shown: CC[C@@H](C)Nc1nc(C)nc2c(-c3ccc(OC)nc3C)c(C)nn12
Marked response: 13.5

====

ASSAY_TEXT: Plasma concentration in spontaneously breathing dog at 5 mg/kg, iv after 60 mins
Type: ADME, organism-based, Canis lupus familiaris
Parameters: dose 5 mg/kg, route intravenous
REPORTED_METRIC: concentration at 1 h
// return the numeric value with its unit appended

Exam item: Determine from records and report concentration at 1 h for CC[C@@H](C)Nc1nc(C)nc2c(-c3ccc(OC)nc3C)c(C)nn12
Marked response: 229 nM

This collection of values is drawn from ChEMBL document CHEMBL1138476.
